molecular target: UniProt:P11388; test: Inhibition of human recombinant DNA topoisomerse 2 alpha using pBR322 as substrate assessed as inhibition of conversion of supercoiled pBR322 to relaxed form at 100 uM after 30 mins by ethidium bromide staining-based electrophoresis analysis
Sequence (P11388 whole entry): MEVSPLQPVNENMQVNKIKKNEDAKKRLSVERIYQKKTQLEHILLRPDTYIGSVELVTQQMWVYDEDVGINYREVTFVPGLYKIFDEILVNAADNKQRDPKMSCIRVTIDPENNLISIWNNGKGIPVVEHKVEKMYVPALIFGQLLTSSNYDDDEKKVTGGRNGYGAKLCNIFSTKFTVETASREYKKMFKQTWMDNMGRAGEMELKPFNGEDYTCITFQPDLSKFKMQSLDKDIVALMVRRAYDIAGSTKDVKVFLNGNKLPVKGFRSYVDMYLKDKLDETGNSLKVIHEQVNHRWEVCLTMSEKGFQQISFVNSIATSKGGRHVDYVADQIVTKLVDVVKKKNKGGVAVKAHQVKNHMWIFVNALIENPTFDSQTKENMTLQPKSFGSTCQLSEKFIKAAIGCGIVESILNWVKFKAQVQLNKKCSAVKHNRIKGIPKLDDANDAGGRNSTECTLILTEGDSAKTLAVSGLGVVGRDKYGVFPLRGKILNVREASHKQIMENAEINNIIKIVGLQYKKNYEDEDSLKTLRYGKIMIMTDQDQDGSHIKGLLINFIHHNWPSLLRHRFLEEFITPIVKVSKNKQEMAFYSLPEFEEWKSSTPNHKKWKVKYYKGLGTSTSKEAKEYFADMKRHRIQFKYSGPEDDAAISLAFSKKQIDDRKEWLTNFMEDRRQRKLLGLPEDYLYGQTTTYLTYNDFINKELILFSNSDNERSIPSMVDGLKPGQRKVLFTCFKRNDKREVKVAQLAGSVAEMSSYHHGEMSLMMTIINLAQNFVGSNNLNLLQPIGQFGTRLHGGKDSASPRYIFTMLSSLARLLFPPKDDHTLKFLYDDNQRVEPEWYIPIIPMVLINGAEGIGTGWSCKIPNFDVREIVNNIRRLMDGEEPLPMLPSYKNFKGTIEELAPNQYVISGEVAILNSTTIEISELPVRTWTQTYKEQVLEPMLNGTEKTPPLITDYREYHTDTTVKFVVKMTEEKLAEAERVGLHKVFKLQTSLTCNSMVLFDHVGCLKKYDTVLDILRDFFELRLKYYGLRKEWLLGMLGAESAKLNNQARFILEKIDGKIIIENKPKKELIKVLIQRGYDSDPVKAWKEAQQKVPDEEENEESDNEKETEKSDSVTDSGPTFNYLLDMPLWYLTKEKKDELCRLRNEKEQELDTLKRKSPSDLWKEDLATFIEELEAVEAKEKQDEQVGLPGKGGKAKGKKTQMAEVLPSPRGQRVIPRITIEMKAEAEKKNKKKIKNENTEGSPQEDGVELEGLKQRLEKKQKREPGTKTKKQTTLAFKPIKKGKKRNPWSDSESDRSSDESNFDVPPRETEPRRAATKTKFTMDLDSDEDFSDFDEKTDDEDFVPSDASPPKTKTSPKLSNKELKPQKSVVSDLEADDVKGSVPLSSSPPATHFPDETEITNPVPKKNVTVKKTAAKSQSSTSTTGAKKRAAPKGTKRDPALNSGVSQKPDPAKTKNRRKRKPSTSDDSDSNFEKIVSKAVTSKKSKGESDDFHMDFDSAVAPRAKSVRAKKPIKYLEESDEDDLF
Test Readout: inhibition (%)

Illustrative cases are given below, each with its answer.
[[record]]
smiles_str = "Oc1ccccc1-c1cc(-c2cccnc2)c2c(n1)-c1ccccc1C2"
target_desc = "UniProt:P11388"
test_readout = "inhibition"
recorded_number = 3.5

[[record]]
smiles_str = "Oc1cccc(-c2cc(-c3ccco3)c3c(n2)-c2ccccc2C3)c1"
target_desc = "UniProt:P11388"
test_readout = "inhibition"
recorded_number = 78.2

[[record]]
smiles_str = "Oc1ccccc1-c1cc(-c2ccccn2)c2c(n1)-c1ccccc1C2"
target_desc = "UniProt:P11388"
test_readout = "inhibition"
recorded_number = 9.1

[[record]]
smiles_str = "c1ccc(-c2cc(-c3ccsc3)c3c(n2)-c2ccccc2C3)cc1"
target_desc = "UniProt:P11388"
test_readout = "inhibition"
recorded_number = 16.7

[[record]]
smiles_str = "Oc1cccc(-c2cc(-c3ccsc3)c3c(n2)-c2ccccc2C3)c1"
target_desc = "UniProt:P11388"
test_readout = "inhibition"
recorded_number = 77.2


(a) Oc1ccc(-c2cc(-c3ccccn3)c3c(n2)-c2ccccc2C3)cc1
(b) Oc1cccc(-c2cc(-c3ccccn3)c3c(n2)-c2ccccc2C3)c1
(c) Oc1cccc(-c2cc(-c3cccs3)c3c(n2)-c2ccccc2C3)c1
(d) Oc1cccc(-c2cc(-c3ccncc3)c3c(n2)-c2ccccc2C3)c1
Arrange by inhibition, high to low. Please list the labels in the order you were asked to rank them.
c, b, a, d
(c: 72.2%, b: 48.5%, a: 18.2%, d: 8.4%)

(1) Oc1ccc(-c2cc(-c3ccco3)c3c(n2)-c2ccccc2C3)cc1
(2) Oc1ccc(-c2cc(-c3ccoc3)c3c(n2)-c2ccccc2C3)cc1
Which has the smaller recorded inhibition, 1 or 2 ? Could you answer with the label of the item you picked?
2

---

target: DNA topoisomerase 1 (Homo sapiens) (UniProt P11387); assay: Inhibition of human recombinant DNA topoisomerse 1 using pBR322 as substrate assessed as inhibition of conversion of supercoiled pBR322 to relaxed form at 100 uM after 30 mins by ethidium bromide staining-based electrophoresis analysis
Sequence (P11387 whole entry): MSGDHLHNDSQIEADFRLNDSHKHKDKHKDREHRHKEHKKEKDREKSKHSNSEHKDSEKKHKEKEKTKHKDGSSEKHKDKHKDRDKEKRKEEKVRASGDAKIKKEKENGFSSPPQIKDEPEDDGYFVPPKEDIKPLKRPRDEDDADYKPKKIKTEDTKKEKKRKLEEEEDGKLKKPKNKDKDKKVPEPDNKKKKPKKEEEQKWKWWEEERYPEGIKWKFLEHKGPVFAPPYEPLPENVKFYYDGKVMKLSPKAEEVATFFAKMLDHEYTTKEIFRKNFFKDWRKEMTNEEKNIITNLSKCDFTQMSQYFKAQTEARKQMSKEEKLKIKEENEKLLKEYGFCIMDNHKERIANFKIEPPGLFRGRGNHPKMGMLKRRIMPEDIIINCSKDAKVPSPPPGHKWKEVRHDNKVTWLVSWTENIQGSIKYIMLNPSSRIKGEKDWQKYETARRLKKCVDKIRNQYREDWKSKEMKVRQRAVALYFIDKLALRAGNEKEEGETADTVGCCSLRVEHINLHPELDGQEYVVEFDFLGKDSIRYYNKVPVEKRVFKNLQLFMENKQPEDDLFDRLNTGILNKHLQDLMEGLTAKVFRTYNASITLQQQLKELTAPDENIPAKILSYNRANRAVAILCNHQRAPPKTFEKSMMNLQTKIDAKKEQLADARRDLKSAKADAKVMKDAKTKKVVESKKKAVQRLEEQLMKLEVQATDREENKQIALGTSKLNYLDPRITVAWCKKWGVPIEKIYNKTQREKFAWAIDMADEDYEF
Test Readout: inhibition (%)

(A) Oc1cccc(-c2cc(-c3cccnc3)c3c(n2)-c2ccccc2C3)c1
(B) Oc1cccc(-c2cc(-c3ccccn3)c3c(n2)-c2ccccc2C3)c1
Which has the smaller recorded inhibition, A or B ? Could you answer with the label of the item you picked?
B
(B: 5.9%, A: 68.5%)

(I) Oc1ccccc1-c1cc(-c2ccoc2)c2c(n1)-c1ccccc1C2
(II) Oc1ccc(-c2cc(-c3ccsc3)c3c(n2)-c2ccccc2C3)cc1
For this pair, I and II , which shows a numerically higher inhibition? Could you answer with the label of the item you picked?
II
(II: 90.1%, I: 50.6%)

---

Measured IC50 by item
tested on: HCT-15; test: Cytotoxicity against human HCT15 cells incubated from day 2 to day 4 by CCK8 assay; type: functional, cell-based

Illustrative cases are given below, each with its answer.
[[record]]
smiles_str = "Oc1ccccc1-c1cc(-c2ccccn2)c2c(n1)-c1ccccc1C2"
result = "> 50 µM"

[[record]]
smiles_str = "Oc1cccc(-c2cc(-c3ccoc3)c3c(n2)-c2ccccc2C3)c1"
result = "> 50 µM"

[[record]]
smiles_str = "Oc1cccc(-c2cc(-c3cccnc3)c3c(n2)-c2ccccc2C3)c1"
result = "> 50 µM"

[[record]]
smiles_str = "Oc1ccccc1-c1cc(-c2cccs2)c2c(n1)-c1ccccc1C2"
result = "> 50 µM"

[[record]]
smiles_str = "Oc1ccc(-c2cc(-c3ccoc3)c3c(n2)-c2ccccc2C3)cc1"
result = "> 50 µM"

[[record]]
smiles_str = "Oc1cccc(-c2cc(-c3ccccn3)c3c(n2)-c2ccccc2C3)c1"
result = "> 50 µM"

[[record]]
smiles_str = "Oc1ccc(-c2cc(-c3ccncc3)c3c(n2)-c2ccccc2C3)cc1"
result = "> 50 µM"

[[record]]
smiles_str = "c1ccc(-c2cc(-c3ccoc3)c3c(n2)-c2ccccc2C3)cc1"
result = "1.52 µM"


Let's switch to this compound now.
What is its IC50 for HCT-15? Entry: Oc1ccc(-c2cc(-c3ccsc3)c3c(n2)-c2ccccc2C3)cc1
> 50 µM

---

target: DNA topoisomerase 1 (Homo sapiens); assay: Inhibition of human recombinant DNA topoisomerse 1 using pBR322 as substrate assessed as inhibition of conversion of supercoiled pBR322 to relaxed form at 20 uM after 30 mins by ethidium bromide staining-based electrophoresis analysis
Test Readout: inhibition (%)

Illustrative cases are given below, each with its answer.
[[record]]
smiles_str = "Oc1ccccc1-c1cc(-c2ccoc2)c2c(n1)-c1ccccc1C2"
units_text = "%"
recorded_number = 0.5

[[record]]
smiles_str = "Oc1ccc(-c2cc(-c3ccncc3)c3c(n2)-c2ccccc2C3)cc1"
units_text = "%"
recorded_number = 0.7

[[record]]
smiles_str = "Oc1ccc(-c2cc(-c3ccccn3)c3c(n2)-c2ccccc2C3)cc1"
units_text = "%"
recorded_number = 4.7

[[record]]
smiles_str = "Oc1ccc(-c2cc(-c3ccsc3)c3c(n2)-c2ccccc2C3)cc1"
units_text = "%"
recorded_number = 0

[[record]]
smiles_str = "Oc1ccccc1-c1cc(-c2ccncc2)c2c(n1)-c1ccccc1C2"
units_text = "%"
recorded_number = 2.3

[[record]]
smiles_str = "c1ccc(-c2cc(-c3ccco3)c3c(n2)-c2ccccc2C3)cc1"
units_text = "%"
recorded_number = 8.7


(1) Oc1cccc(-c2cc(-c3ccco3)c3c(n2)-c2ccccc2C3)c1
(2) Oc1ccccc1-c1cc(-c2ccsc2)c2c(n1)-c1ccccc1C2
Which has the smaller recorded inhibition, 1 or 2 ? Could you answer with the label of the item you picked?
2
(2: 0%, 1: 5.5%)

---

system: HeLa; test: Cytotoxicity against human HeLa cells incubated from day 2 to day 4 by CCK8 assay; assay type: functional, cell-based
Measured IC50 by item

Illustrative cases are given below, each with its answer.
[[record]]
smiles_str = "CC[C@@]1(O)C(=O)OCc2c1cc1n(c2=O)Cc2cc3ccccc3nc2-1"
result = "0.41 µM"

[[record]]
smiles_str = "Oc1cccc(-c2cc(-c3ccncc3)c3c(n2)-c2ccccc2C3)c1"
result = "> 50 µM"

[[record]]
smiles_str = "Oc1ccc(-c2cc(-c3ccco3)c3c(n2)-c2ccccc2C3)cc1"
result = "> 50 µM"


What is its IC50 for HeLa? Entry: Oc1ccccc1-c1cc(-c2ccccn2)c2c(n1)-c1ccccc1C2
> 50 µM

What is its IC50 for HeLa? Entry: Oc1ccc(-c2cc(-c3ccoc3)c3c(n2)-c2ccccc2C3)cc1
> 50 µM

---

molecular target: DNA topoisomerase 1 (Homo sapiens) (UniProt P11387); assay: Inhibition of human recombinant DNA topoisomerse 1 using pBR322 as substrate assessed as inhibition of conversion of supercoiled pBR322 to relaxed form at 100 uM after 30 mins by ethidium bromide staining-based electrophoresis analysis
Test Readout: inhibition (%)

Illustrative cases are given below, each with its answer.
[[record]]
smiles_str = "c1ccc(-c2cc(-c3ccco3)c3c(n2)-c2ccccc2C3)cc1"
units_text = "%"
recorded_number = 73

[[record]]
smiles_str = "Oc1cccc(-c2cc(-c3ccsc3)c3c(n2)-c2ccccc2C3)c1"
units_text = "%"
recorded_number = 76.9

[[record]]
smiles_str = "c1ccc(-c2cc(-c3cccs3)c3c(n2)-c2ccccc2C3)cc1"
units_text = "%"
recorded_number = 3.7


(I) c1ccc(-c2cc(-c3ccsc3)c3c(n2)-c2ccccc2C3)cc1
(II) Oc1ccc(-c2cc(-c3ccco3)c3c(n2)-c2ccccc2C3)cc1
For this pair, I and II , which shows a numerically higher inhibition? Could you answer with the label of the item you picked?
II
(II: 54.8%, I: 3.4%)

---

system: HCT-15; assay: Cytotoxicity against human HCT15 cells incubated from day 2 to day 4 by CCK8 assay; format: functional, cell-based
Measured IC50 by item

[[record]]
smiles_str = "Oc1ccc(-c2cc(-c3ccco3)c3c(n2)-c2ccccc2C3)cc1"
target_desc = "HCT-15"
test_readout = "IC50"
result = "> 50 µM"

[[record]]
smiles_str = "Oc1ccccc1-c1cc(-c2ccoc2)c2c(n1)-c1ccccc1C2"
target_desc = "HCT-15"
test_readout = "IC50"
result = "> 50 µM"

[[record]]
smiles_str = "Oc1ccc(-c2cc(-c3cccs3)c3c(n2)-c2ccccc2C3)cc1"
target_desc = "HCT-15"
test_readout = "IC50"
result = "> 50 µM"


Bench note: what IC50 did c1ccc(-c2cc(-c3ccsc3)c3c(n2)-c2ccccc2C3)cc1 show?
31.4 µM

Bench note: what IC50 did Oc1cccc(-c2cc(-c3ccsc3)c3c(n2)-c2ccccc2C3)c1 show?
6.73 µM

Bench note: what IC50 did c1ccc(-c2cc(-c3ccncc3)c3c(n2)-c2ccccc2C3)cc1 show?
> 50 µM

Bench note: what IC50 did Oc1ccccc1-c1cc(-c2ccncc2)c2c(n1)-c1ccccc1C2 show?
> 50 µM

Bench note: what IC50 did c1ccc(-c2cc(-c3ccco3)c3c(n2)-c2ccccc2C3)cc1 show?
11.2 µM
